// provenance: paper PMC12356538

System: SARS-CoV-2 SL1 RNA (SL1 wt)
Format: binding
Settings: 10 μM SL1 wt, 200 μM ligand, pH 6.2
Quantity: wLOGSY factor

Q: SARS-CoV-2 SL1 RNA (SL1 wt) / wLOGSY factor / COc1ccc(-c2nnc(NC(=O)CN(C)C)s2)cc1 [A.21] : value?
A: 1.43

Q: SARS-CoV-2 SL1 RNA (SL1 wt) / wLOGSY factor / CNC(=O)Nc1nc2c(OC)cc(OC)cc2s1 [A.11] : value?
A: 1.51

Q: SARS-CoV-2 SL1 RNA (SL1 wt) / wLOGSY factor / COc1ccc2nc(NC(=O)CN3CCC[C@H](N)C3)sc2c1 [A.36] : value?
A: 0.82

Q: SARS-CoV-2 SL1 RNA (SL1 wt) / wLOGSY factor / CN(C)CC(=O)Nc1nc2ccc(N)cc2s1 [A.24] : value?
A: 0.49

Q: SARS-CoV-2 SL1 RNA (SL1 wt) / wLOGSY factor / COc1ccc2nc(NC(=O)CN(C)C3CC(C)(C)NC(C)(C)C3)sc2c1 [A.44] : value?
A: 1.19

Q: SARS-CoV-2 SL1 RNA (SL1 wt) / wLOGSY factor / COCCN(C)CC(=O)Nc1nc2ccc(OC)cc2s1 [A.30] : value?
A: 0.14

Q: SARS-CoV-2 SL1 RNA (SL1 wt) / wLOGSY factor / COc1ccc2nc(NC(=O)CN3CCN(C)CC3)sc2c1 [A.18] : value?
A: 0.80

Q: SARS-CoV-2 SL1 RNA (SL1 wt) / wLOGSY factor / COc1ccc2nc(NC(=O)CN(C)C)sc2n1 [A.38] : value?
A: 1.22

Q: SARS-CoV-2 SL1 RNA (SL1 wt) / wLOGSY factor / COc1ccc(-c2nnc(NC(=O)CN3CCC[C@@H](N)C3)s2)cc1OC [A.59] : value?
A: 0.00

Q: SARS-CoV-2 SL1 RNA (SL1 wt) / wLOGSY factor / CN(C)CC(=O)Nc1nnc(-c2cc(F)c(Cl)c([N+](=O)[O-])c2Cl)s1 [A.43] : value?
A: 0.00

Q: SARS-CoV-2 SL1 RNA (SL1 wt) / wLOGSY factor / CN(C)CC(=O)Nc1nc2ccc(O)cc2s1 [A.12] : value?
A: 0.15

###

System: SARS-CoV-2 SL1 RNA (SL1 wt)
Format: binding
Settings: 10 μM SL1 wt, 200 μM ligand, pH 6.2
Quantity: wLOGSY factor
# print the numeric value only

Q: Dear colleague, I am looking for the recorded wLOGSY factor of the following compound: COc1cc(OC)c2nc(NC(=O)CN3CCN(C)CC3)sc2c1 [A.56]
A: 0.00

Q: Dear colleague, I am looking for the recorded wLOGSY factor of the following compound: COc1ccc2nc(NC(=O)CN3CCC[C@@H](NCCN(C)c4cccc(O)c4)C3)sc2c1 [A.50]
A: 0.00

Q: Dear colleague, I am looking for the recorded wLOGSY factor of the following compound: COc1ccc(-c2nnc(NC(=O)CN3CCC[C@H](N)C3)s2)cc1OC [A.58]
A: 0.00

Q: Dear colleague, I am looking for the recorded wLOGSY factor of the following compound: COc1cc(OC)c2nc(NC(=O)CN(C)C)sc2c1 [A.15]
A: 2.66

Q: Dear colleague, I am looking for the recorded wLOGSY factor of the following compound: CN(C)CC(=O)Nc1nc2ccc(OC(F)(F)F)cc2s1 [A.28]
A: 1.01
